ASSAY_COMMENT: NCI Yeast Anticancer Drug Screen. Data for the rad50 strain (AID 155);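 note: 0% = growth of vehicle-only cultures of the same strain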
TEST_PARAMETERS: S. cerevisiae rad50 strain growth inhibition; at 50.0 µM; hits give high values
Compounds without any hit were thinned out: in the full panel of roughly 79,000, 15% have a hit. Activity calls are given as the source filed them. Cut-off read from the data, not from the text of the source: active = growth inhibition above about 70%; inactive = the rest.
Listed compounds paired with reported growth inhibition

Consider the compound COc1cccc(NC(=S)NNC(=S)NNc2ccccc2)c1 and give its measured growth inhibition. 59.4% (inactive)

Consider the compound O=C([O-])c1ccc2c(c1)-c1nc-2nc2[n-]c(nc3nc(nc4[n-]c(n1)c1ccc(C(=O)[O-])cc41)-c1cc(C(=O)[O-])ccc1-3)c1ccc(C(=O)[O-])cc21.[Fe+2] and give its measured growth inhibition. -1.2% (inactive)

Consider the compound CCC(=O)C12CCCC1=NC(=N)N=C2C1=NC(=N)N=C2CCCC21C(=O)CC (stereo unspecified) and give its measured growth inhibition. -10.3% (inactive)

Continuing:
Consider the compound CC(CN(C)C)N(C)C (stereo unspecified) and give its measured growth inhibition. -14.7% (inactive)

Consider the compound c1cn(C23C4C5C6C4C2C6C53)cn1 (stereo unspecified) and give its measured growth inhibition. 2.65% (inactive)

Consider the compound CC/C(=C(\CC)c1ccc(OC2C=CCCC2)cc1)c1ccc(OC2C=CCCC2)cc1 (stereo unspecified) and give its measured growth inhibition. 28.3% (inactive)

Consider the compound CCC1CC2CCC(c3cc4c(cc3OC)N(C)C3C(O)(C(=O)OC)C(OC(C)=O)C5(CC)C=CCN6CCC43C65)c3[nH]c4ccccc4c3CCN(C1)C2 (stereo unspecified) and give its measured growth inhibition. 2.65% (inactive)

Consider the compound Cc1c2c(C#N)nccc2c(C)c2c1c1ccccc1n2Cc1ccccc1 and give its measured growth inhibition. 33.5% (inactive)

Consider the compound CCCC(O)C(C)N (stereo unspecified) and give its measured growth inhibition. 4.3% (inactive)

Consider the compound CCCCCCCCC(=O)c1c(OC)oc(C=O)cc1=O and give its measured growth inhibition. -0.5% (inactive)

Consider the compound OC12c3ccccc3C1CCCCCC21OCCCO1 (stereo unspecified) and give its measured growth inhibition. -9.4% (inactive)

* * *

Listed compounds paired with reported growth inhibition
ASSAY_COMMENT: NCI Yeast Anticancer Drug Screen. Data for the mlh1 rad18 strain (AID 175)
TEST_PARAMETERS: S. cerevisiae mlh1 rad18 strain growth inhibition; at 50.0 µM; hits give high values
The panel holds about 79,000 compounds, 15% with a hit somewhere; the sample as a whole holds those more often.
Lab book: enter the figure in %, no units written.

Some compounds with recorded growth inhibition:
Consider the compound CCOC(=O)C1(O)c2ccccc2NC(=S)N1CC(Br)CBr (stereo not given) and give its measured growth inhibition. 32.6

Consider the compound CC1CN(C(c2ccccc2)c2ccccc2)CCN1CCO (stereo not given) and give its measured growth inhibition. 25.4

Consider the compound COc1cccc(CC(=O)O)c1OC and give its measured growth inhibition. 12.6

Consider the compound CCOC(=O)CC1(C)c2nc(NC(C)=O)sc2Cc2sc(NC(C)=O)nc21 and give its measured growth inhibition. -15.5

Consider the compound O=c1[nH]c(C(Cl)(Cl)Cl)nc2ccc(Cl)cc12 and give its measured growth inhibition. -12.1

Continuing:
Consider the compound Nc1ncnc2c1cnn2-c1ccc(Cl)cc1 and give its measured growth inhibition. 48

Consider the compound O=S(=O)(c1ccccc1)N1CN(S(=O)(=O)c2ccccc2)CN(S(=O)(=O)c2ccccc2)C1 and give its measured growth inhibition. 6.35

Consider the compound CSc1nc[nH]c1C(N)=S and give its measured growth inhibition. 8.7

Consider the compound O=[N+]([O-])c1ccc(Nc2nc3ccccc3s2)cc1 and give its measured growth inhibition. 15.2

Consider the compound CCCN=C(N)NC#N and give its measured growth inhibition. 15.1

Consider the compound N/C(=N\c1nc(N)cc(N)n1)Nc1ccc(S(N)(=O)=O)cc1 and give its measured growth inhibition. -4.15

Consider the compound CCOC(=O)Cc1c(C)cc(C)cc1C and give its measured growth inhibition. 10.4

Consider the compound CCOC(=O)C(=O)N1Cc2cc3c(cc2C2CC(O)C(O)CC21)OCO3 (stereo not given) and give its measured growth inhibition. 5.85

Consider the compound CCOC(=O)C1CC(=O)C2/C(=C(\O)c3ccccc3)C=C([N+](=O)[O-])C1C2[N+](=O)[O-] (stereo not given) and give its measured growth inhibition. -1.2

Consider the compound O=C1C(c2ccccc2Cl)[C@H]2CC=C[C@H]2N1O (stereo not given in full) and give its measured growth inhibition. -5.35

Consider the compound O=c1ccn(C2OC(C(O)CO)C(O)C2O)c(=O)[nH]1 (stereo not given) and give its measured growth inhibition. 9.25

Consider the compound O=C(O)C1CC1Br (stereo not given) and give its measured growth inhibition. 5.8

Consider the compound CC1=NN(c2nc(N)nc(CN3CCOCC3)n2)C(C)(C)C1 and give its measured growth inhibition. -2.05

Consider the compound COC(=O)C1CC(OC(C)=O)C2OC(C)(C)OC2C1OC(C)=O (stereo not given) and give its measured growth inhibition. -3

Consider the compound CC(C)OC1CC1 and give its measured growth inhibition. -21

Consider the compound NC(CC(F)(F)F)C(=O)O (stereo not given) and give its measured growth inhibition. 11.9

Consider the compound CC[N+]1(C)CCC(CN2c3ccccc3Sc3ccccc32)C1 (stereo not given) and give its measured growth inhibition. 43.3
